- System: P. falciparum (NF54) stage V gametocytes
- Set-up: Mature stage V gametocyte viability, MitoTracker Red CMXRos high-content imaging
- ASSAY_CONDITIONS: primary screen, n=2, fraction of DMSO control; 72 h, 2 µM; inhibitor
The full ranking holds about 68,000 compounds; the median of “% viability” is about 1.1, and the lowest 2% start at about 0.96. The entries come from a sample that favours the lowest values as a whole. The numbers are fractions of the control, whatever unit the source prints.
EXPERIMENTAL_READOUT: % viability (%)
Provide the reading as a plain figure in %.

* Cc1nc(O)cc(CCNC(=O)CC[C@@H]2CCCN3CCCC[C@H]23)n1 | 1.201
* COc1cccc(C2=NN=CC2=C2NC(CN3CCCC3)=NO2)c1 | 1.119
* Cc1[nH]n(C2CCS(=O)(=O)C2)c(=O)c1Cc1ccccc1Cl (stereo not drawn) | 1.154
* COc1cccc(Cn2nc(C)c3c(NC(=O)C(C)OC)[nH]nc32)c1 (stereo not drawn) | 1.059
* COCCC(=O)N1Cc2[nH]c3c(C)c(-c4cccs4)nn3c(=O)c2C1 | 1.121
* COc1cc2c(cc1-c1nc3c[nH]n(C(C)C4CC4)c-3n1)OCO2 (stereo not drawn) | 1.215
* Cc1[nH]n(-c2ccc(F)cc2)c2nnc(N)c1-2 | 1.104
* COc1cc(OC)c(-c2nc3c(C4CC4)[nH]n(C)c-3n2)cc1OC | 0.9472

# context switch: different molecule, same % viability
I have this molecule here, Cc1[nH]n(C2CCCCC2)c2nc(C(C)(C)CN3CCOCC3)nc1-2 , and I need its recorded % viability.
1.099

----------
- Tested on: P. falciparum (NF54) stage V gametocytes
- Design: Mature stage V gametocyte viability, MitoTracker Red CMXRos high-content imaging
- ASSAY_CONDITIONS: primary screen, n=2, fraction of DMSO control; 72 h, 2 µM; inhibitor
The full ranking holds about 68,000 compounds; the median of “% viability” is about 1.1, and the lowest 2% start at about 0.96. Only a selection was taken, and the lowest values are over-represented in it overall. The numbers are fractions of the control, whatever unit the source prints.
Listed compounds paired with reported % viability

I have this compound here, Clc1cccc(-c2cccc(N3CCC(NC4CCOCC4)CC3)c2)c1 , and I need its recorded % viability.
1.106%

Next up: COc1cccc(F)c1-c1nc2c(C3CC3)[nH]n(C)c-2n1
1.144%

----------
Listed compounds paired with reported % viability
- Test system: P. falciparum (NF54) stage V gametocytes
- Parameters: Mature stage V gametocyte viability, MitoTracker Red CMXRos high-content imaging
- ASSAY_CONDITIONS: primary screen, n=2, fraction of DMSO control; 72 h, 2 µM; inhibitor
Whole data set: some 68,000 compounds, median “% viability” near 1.1, cut for the lowest 2% near 0.96. This excerpt belongs to a sample that is enriched for the lowest values. The numbers are fractions of the control, whatever unit the source prints.
Could you kindly put the unit after your number?

Please review the following examples before continuing.
* COCC(=O)Nc1[nH]nc2c1c(C)nn2Cc1cccc(OC)c1 | 1.204%
* CN(CCCc1ccccc1)C(=O)CCC1=NC(=C2N=CN=N2)NO1 | 0.9845%

# context switch: different compound, same % viability
I have this compound here, CCc1cc(=O)n2nc(C3CCN(C(=O)c4cccnc4)CC3)cc2[nH]1 , and I need its recorded % viability.
1.192%

This collection of values is drawn from paper PMC7155171.
